melting point for assorted compounds
Counter-ions that a name gives are not always drawn.

Some compounds with known melting point results, for comparison:
1. CN1CCN(c2nc(-c3ccc(OCCO)cc3)cc3sccc23)CC1 (as salt: hydrochloride) [Example 279] ... 148 to 150 °C
2. CCN1CCN(c2nc(-c3ccc(COCCO)cc3)cc3ccccc23)CC1 (as salt: hydrochloride) [Example 44] ... 129 to 131 °C
3. CCN1CCN(c2nc(-c3ccc(N4CCC(OC)CC4)nc3)cc3ccccc23)CC1 (as salt: hydrochloride) [Example 153, trihydrochloride] ... 170 °C

Exercise: Which melting point value is on record for CCNC(=O)Cc1ccc(-c2cc3ccccc3c(N3CCN(CC)CC3)n2)cc1 (as salt: hydrochloride) [Example 87] ?
Key: 143 to 145 °C

Exercise: Given CCN1CCN(c2nc(C(C)c3ccc(OC)cc3)cc3ccccc23)CC1 (stereo not shown) (as salt: oxalate) [Example 102] , state its recorded melting point.
Key: 86 to 88 °C

Exercise: What value of melting point has been recorded for this entry: CCN1CCN(c2nc(-c3ccc(C(=O)NC4CCCCC4)cc3)cc3ccsc23)CC1 (as salt: hydrochloride) [Example 273, dihydrochloride]
Key: 160 to 165 °C

Exercise: Looking for the measured melting point of CCN1CCN(c2nc(-c3ccc(CCC(C)O)cc3)cc3sccc23)CC1 (stereo not shown) (as salt: hydrochloride) [Example 285] , can you help?
Key: 122 to 124 °C

Exercise: Fill blank: measured melting point of the compound CCN1CCN(c2nc(-c3ccc(CCCO)cc3)cc3sccc23)CC1 (as salt: hydrochloride) [Example 465, dihydrochloride] is ____.
Key: 125.5 to 126.5 °C

Exercise: Find the recorded melting point belonging to CCN1CCN(c2nc(-c3ccc([C@@H]4C[C@H](O)CCO4)cc3)cc3ccccc23)CC1 (relative stereo) (as salt: hydrochloride) [Example 401, Dihydrochloride] and report it.
Key: 148 to 149.5 °C

Exercise: What melting point value was documented for this compound, CCN1CCN(c2nc(-c3ccc(OCCOC)nc3)cc3ccccc23)CC1 (as salt: hydrochloride) [Example 126] ?
Key: 115 to 120 °C

Exercise: For the compound shown here, CCN1CCN(c2nc(-c3ccc(OCCO)nc3)cc3ccccc23)CC1 (as salt: hydrochloride) [Example 125] , give the reported melting point.
Key: 137 to 142 °C

Exercise: Requested field: melting point. Item: CCN1CCN(c2nc(C#Cc3cncc(CCCOC)c3)cc3ccccc23)CC1 (as salt: hydrochloride) [Example 186]
Key: 135 to 140 °C

Exercise: Entry under review: CCN1CCN(c2nc(-c3ccc(C(O)(c4nccs4)c4nccs4)cc3)cc3ccccc23)CC1 (as salt: hydrochloride) [Example 411] . Reported melting point?
Key: 157 to 158 °C
